pIC50 overview
biological target: EGFR L858R/T790M/C797S mutant (Homo sapiens (Human), UniProt P00533, C797S/L858R/T790M); assay: HotSpot radiometric kinase assay, EGFR L858R/T790M/C797S mutant; conditions: 10 μM ATP
Sequence (P00533 25-1210 T790M/C797S/L858R): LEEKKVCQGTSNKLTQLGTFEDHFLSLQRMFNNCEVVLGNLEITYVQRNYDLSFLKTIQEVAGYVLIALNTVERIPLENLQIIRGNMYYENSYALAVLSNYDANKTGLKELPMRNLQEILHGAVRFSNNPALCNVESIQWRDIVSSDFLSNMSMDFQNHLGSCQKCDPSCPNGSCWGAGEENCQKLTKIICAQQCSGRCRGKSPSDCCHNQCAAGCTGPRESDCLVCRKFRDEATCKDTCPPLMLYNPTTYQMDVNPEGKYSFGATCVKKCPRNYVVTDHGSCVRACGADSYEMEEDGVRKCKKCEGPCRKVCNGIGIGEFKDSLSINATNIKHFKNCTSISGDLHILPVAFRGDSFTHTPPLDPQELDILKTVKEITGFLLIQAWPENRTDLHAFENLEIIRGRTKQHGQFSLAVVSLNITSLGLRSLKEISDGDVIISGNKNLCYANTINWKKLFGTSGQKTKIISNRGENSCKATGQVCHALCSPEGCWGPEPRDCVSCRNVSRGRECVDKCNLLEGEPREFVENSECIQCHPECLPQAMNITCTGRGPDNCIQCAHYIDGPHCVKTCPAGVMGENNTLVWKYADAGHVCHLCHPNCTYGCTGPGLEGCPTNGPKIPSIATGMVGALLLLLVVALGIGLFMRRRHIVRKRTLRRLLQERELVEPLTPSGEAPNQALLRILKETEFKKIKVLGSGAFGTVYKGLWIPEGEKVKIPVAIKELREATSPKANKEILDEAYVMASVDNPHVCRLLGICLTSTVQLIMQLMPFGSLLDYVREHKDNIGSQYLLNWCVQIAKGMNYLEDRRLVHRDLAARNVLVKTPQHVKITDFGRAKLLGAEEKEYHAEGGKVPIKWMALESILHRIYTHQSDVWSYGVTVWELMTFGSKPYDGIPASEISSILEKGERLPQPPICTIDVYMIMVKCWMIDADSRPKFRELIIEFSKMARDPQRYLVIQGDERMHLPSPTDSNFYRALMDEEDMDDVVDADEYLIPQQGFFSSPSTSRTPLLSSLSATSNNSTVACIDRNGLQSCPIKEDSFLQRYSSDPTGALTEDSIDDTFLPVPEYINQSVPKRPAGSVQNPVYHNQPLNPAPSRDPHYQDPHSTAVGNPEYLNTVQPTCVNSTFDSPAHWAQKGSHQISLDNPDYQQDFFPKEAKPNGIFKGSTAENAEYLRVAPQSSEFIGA
Quick note: pIC50 values are minus log10 of concentrations in mol/L.

Examples from the recorded data:
Cc1c2c(nn1C[C@H](C)O)CN(C)C[C@H](C)Oc1c(cnn1C)-c1ccc3[nH]nc(c3c1)/C=C/2 [Example 124]    8.63
Cc1c2c(nn1C)/C=C/c1n[nH]c3ccc(cc13)-c1cnn(C)c1O[C@@H](C)CN(C)C2 [Example 126]    8.55

In: Need pIC50, item CCN1CCOc2c(c(C)nn2C)/C=C/c2n[nH]c3ccc(cc23)-c2cnn(C)c2C1 [Example 111]
Out: 8.72

In: What about this compound? CN1CCN(Cc2ccc3c(c2)O[C@@H]2CCN(CCOc4c(cnn4C)-c4ccc5[nH]nc(c5c4)/C=C/3)C2=O)CC1 [Example 92]
Out: 8.49

###

molecular target: EGFR (D770_N771insNPG) (Homo sapiens (Human), UniProt P00533, INS770NPG); test: HotSpot radiometric kinase assay, EGFR (D770_N771insNPG); conditions: 10 μM ATP, read-out: EGFR (Δ770_N771insNPG) IC50
Sequence (P00533 other isoform, or with tags, fused parts or gaps del 1-668/ins NPG behind 770 limits assumed): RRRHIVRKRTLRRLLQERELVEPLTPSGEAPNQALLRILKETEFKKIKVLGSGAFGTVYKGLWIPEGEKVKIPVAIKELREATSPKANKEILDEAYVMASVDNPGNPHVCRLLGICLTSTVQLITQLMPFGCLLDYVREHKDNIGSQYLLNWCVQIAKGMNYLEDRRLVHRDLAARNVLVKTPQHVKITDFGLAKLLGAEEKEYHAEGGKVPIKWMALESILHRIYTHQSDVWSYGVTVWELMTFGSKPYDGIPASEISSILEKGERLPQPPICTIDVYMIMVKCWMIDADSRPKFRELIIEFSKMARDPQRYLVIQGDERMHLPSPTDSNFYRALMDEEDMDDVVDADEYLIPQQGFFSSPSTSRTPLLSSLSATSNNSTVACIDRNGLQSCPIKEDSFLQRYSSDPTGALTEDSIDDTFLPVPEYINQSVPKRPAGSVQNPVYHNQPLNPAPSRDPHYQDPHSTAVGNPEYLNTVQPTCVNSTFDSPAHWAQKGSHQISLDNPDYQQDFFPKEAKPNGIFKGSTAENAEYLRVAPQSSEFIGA
log10(IC50) overview
Values below are the log10 of the recorded IC50, with nM as the unit.

CC(C)Oc1nn([C@@H](C)CO)c2c1/C=C/c1n[nH]c3cc(F)c(cc13)-c1cnn(C)c1O[C@@H](C)CN(C)C2 [Example 200]    1.78
Cc1c2c(nn1C)OCCOCc1c(cnn1C)-c1ccc3[nH]nc(c3c1)/C=C/2 [Ex. 7]    3.33
Cc1c2c(nn1CCN1CCN(C)CC1)CN(C)C[C@H](C)Oc1c(cnn1C)-c1ccc3[nH]nc(c3c1)/C=C/2 [Example 90]    1.91
CCOc1nn(CCO)c2c1/C=C/c1n[nH]c3ccc(cc13)-c1cnn(CC)c1O[C@@H](C)CN(C)C2 [Example 168]    1.14
Cc1nn(C)c2c1/C=C/c1n[nH]c3ccc(cc13)-c1cnn(C)c1CN(C)CCO2 [Example 55]    1.89

In: Need log10(IC50), item CCOc1nn(CCO)c2c1/C=C/c1n[nH]c3ccc(cc13)-c1cnn(C)c1OC[C@H](CC)N(C)C2 [Example 259]
Out: 2.70

###

Let's go through some log10 of IC50 measurements on CLK3 (Homo sapiens (Human), UniProt P49761) together.
Sequence (P49761 whole entry): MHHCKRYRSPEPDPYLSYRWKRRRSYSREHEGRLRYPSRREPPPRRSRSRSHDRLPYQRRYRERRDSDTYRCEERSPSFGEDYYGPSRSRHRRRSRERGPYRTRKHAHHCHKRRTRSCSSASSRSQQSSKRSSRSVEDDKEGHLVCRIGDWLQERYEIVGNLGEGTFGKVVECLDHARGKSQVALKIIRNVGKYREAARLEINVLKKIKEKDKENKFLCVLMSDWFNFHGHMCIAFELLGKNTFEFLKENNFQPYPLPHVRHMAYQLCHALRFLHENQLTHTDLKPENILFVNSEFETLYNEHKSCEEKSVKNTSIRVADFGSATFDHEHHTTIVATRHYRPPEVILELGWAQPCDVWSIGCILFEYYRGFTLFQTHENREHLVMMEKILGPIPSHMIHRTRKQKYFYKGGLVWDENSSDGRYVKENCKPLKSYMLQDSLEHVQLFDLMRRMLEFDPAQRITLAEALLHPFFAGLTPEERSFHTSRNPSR
Values below are the log10 of the recorded IC50, with nM as the unit.

Examples from the recorded data:
CCN1Cc2c(c(OC(C)C)nn2C[C@H](C)O)/C=C/c2n[nH]c3cc(F)c(cc23)-c2cnn(C)c2O[C@@H](C)C1 [Example 296]    1.52
Cc1nn(C)c2c1/C=C/c1n[nH]c3ccc(cc13)-c1cnn(C)c1OCCN(C)C2 [Example 43]    2.37
CC(C)Oc1nn([C@@H](C)CO)c2c1/C=C/c1n[nH]c3cc(F)c(cc13)-c1cnn(C)c1O[C@@H](C)CN(C)C2 [Example 200]    2.29

In: // map CCOc1nn(C)c2c1/C=C/c1n[nH]c3ccc(cc13)-c1cnn(C)c1O[C@@H]1CCCN(C2)C1 [Example 160] to recorded log10 of IC50 (system: CLK3 (Homo sapiens (Human), UniProt P49761))
Out: 1.58

In: What about this molecule? CCOc1nn(CCO)c2c1/C=C/c1n[nH]c3ccc(cc13)-c1cnn(C)c1O[C@@H](C)CN(CC)C2 [Example 177]
Out: 1.77

###

pIC50 overview
molecular target: EGFR L858R/T790M/C797S mutant (Homo sapiens (Human), UniProt P00533, C797S/L858R/T790M); assay: HotSpot radiometric kinase assay, EGFR L858R/T790M/C797S mutant; details: 10 μM ATP
Quick note: pIC50 values are minus log10 of concentrations in mol/L.

Examples from the recorded data:
Cc1c2c(nn1CCN1CCCC1)CN(C)C[C@@H](C)Oc1c(cnn1C)-c1ccc3[nH]nc(c3c1)/C=C/2    7.89
Cc1nn(C)c2c1/C=C/c1n[nH]c3ccc(cc13)-c1cnn(C)c1CN(C)CCO2    8.39
Cc1c2c(nn1C)/C=C/c1n[nH]c3ccc(cc13)-c1cnn(C)c1O[C@@H](C)CN(C(C)C)C2    8.79
CCOc1nn(CCO)c2c1/C=C/c1n[nH]c3ccc(cc13)-c1cnn(C)c1O[C@H]1CN(C)C[C@@H]1N(C)C2 (single isomer, unassigned)    8.96
CCc1nn(C)c2c1/C=C/c1n[nH]c3ccc(cc13)-c1cnn(C)c1O[C@@H](C)COC2    7.22
Cc1nn(CCO)c2c1/C=C/c1n[nH]c3ccc(cc13)-c1c(C)nn(C)c1O[C@@H](C)CN(C)C2    9.26
C[C@H]1CN(C)Cc2c(c(CN(C)C)nn2CCO)/C=C/c2n[nH]c3ccc(cc23)-c2cnn(C)c2O1    7.22
Cc1nn(C2CCN(C)C2)c2c1/C=C/c1n[nH]c3ccc(cc13)-c1cnn(C)c1CN(C)CCO2 (stereo not shown)    8.07

In: Need pIC50, item CCOc1nn(CCO)c2c1/C=C/c1n[nH]c3ccc(cc13)-c1cnn(C)c1O[C@H](C)CNC2
Out: 8.66

In: What about this compound? Cc1nn([C@H]2C[C@@H](NCCN(C)C)C2)c2c1/C=C/c1n[nH]c3ccc(cc13)-c1cnn(C)c1OCCCO2
Out: 7.92

In: What about this compound? Cc1nn([C@H]2CCNC[C@@H]2O)c2c1/C=C/c1n[nH]c3ccc(cc13)-c1cnn(C)c1OCCCO2 (racemic)
Out: 7.95

In: What about this compound? CCN1Cc2c(c(OC(C)C)nn2[C@@H](C)CO)/C=C/c2n[nH]c3cc(F)c(cc23)-c2cnn(C)c2O[C@@H](C)C1
Out: 8.42

In: What about this compound? Cc1nn(C)c2c1/C=C/c1n[nH]c3ccc(cc13)-c1cnn(C)c1O[C@@H]1CCCN(C2)C1
Out: 8.68

In: What about this compound? COC(C)(C)c1ccc2c(c1)O[C@@H]1CCN(CCOc3c(cnn3C)-c3ccc4[nH]nc(c4c3)/C=C/2)C1=O
Out: 7.85

In: What about this compound? CC(C)Oc1nn(CCO)c2c1/C=C/c1n[nH]c3ccc(cc13)-c1cnn(C)c1O[C@@H](C)[C@H]1CCCN1C2
Out: 8.27

In: What about this compound? CCn1ncc2c1O[C@@H](C)CN(C)Cc1c(c(OC(C)C)nn1CCO)/C=C/c1n[nH]c3ccc-2cc13
Out: 8.90

In: What about this compound? CCN1Cc2c(c(OC(C)C)nn2C[C@H](C)O)/C=C/c2n[nH]c3ccc(cc23)-c2cnn(C)c2O[C@H](C)C1
Out: 9.44

In: What about this compound? CN1CCN(c2ccc3c(c2)OC2CCN(CCOc4c(cnn4C)-c4ccc5[nH]nc(c5c4)/C=C/3)C2=O)CC1 (stereo in doubt)
Out: 8.72

###

target: EGFR L858R mutant (Homo sapiens (Human), UniProt P00533, L858R); test: HotSpot radiometric kinase assay, EGFR L858R mutant; details: 10 μM ATP
Sequence (P00533 25-1210 L858R): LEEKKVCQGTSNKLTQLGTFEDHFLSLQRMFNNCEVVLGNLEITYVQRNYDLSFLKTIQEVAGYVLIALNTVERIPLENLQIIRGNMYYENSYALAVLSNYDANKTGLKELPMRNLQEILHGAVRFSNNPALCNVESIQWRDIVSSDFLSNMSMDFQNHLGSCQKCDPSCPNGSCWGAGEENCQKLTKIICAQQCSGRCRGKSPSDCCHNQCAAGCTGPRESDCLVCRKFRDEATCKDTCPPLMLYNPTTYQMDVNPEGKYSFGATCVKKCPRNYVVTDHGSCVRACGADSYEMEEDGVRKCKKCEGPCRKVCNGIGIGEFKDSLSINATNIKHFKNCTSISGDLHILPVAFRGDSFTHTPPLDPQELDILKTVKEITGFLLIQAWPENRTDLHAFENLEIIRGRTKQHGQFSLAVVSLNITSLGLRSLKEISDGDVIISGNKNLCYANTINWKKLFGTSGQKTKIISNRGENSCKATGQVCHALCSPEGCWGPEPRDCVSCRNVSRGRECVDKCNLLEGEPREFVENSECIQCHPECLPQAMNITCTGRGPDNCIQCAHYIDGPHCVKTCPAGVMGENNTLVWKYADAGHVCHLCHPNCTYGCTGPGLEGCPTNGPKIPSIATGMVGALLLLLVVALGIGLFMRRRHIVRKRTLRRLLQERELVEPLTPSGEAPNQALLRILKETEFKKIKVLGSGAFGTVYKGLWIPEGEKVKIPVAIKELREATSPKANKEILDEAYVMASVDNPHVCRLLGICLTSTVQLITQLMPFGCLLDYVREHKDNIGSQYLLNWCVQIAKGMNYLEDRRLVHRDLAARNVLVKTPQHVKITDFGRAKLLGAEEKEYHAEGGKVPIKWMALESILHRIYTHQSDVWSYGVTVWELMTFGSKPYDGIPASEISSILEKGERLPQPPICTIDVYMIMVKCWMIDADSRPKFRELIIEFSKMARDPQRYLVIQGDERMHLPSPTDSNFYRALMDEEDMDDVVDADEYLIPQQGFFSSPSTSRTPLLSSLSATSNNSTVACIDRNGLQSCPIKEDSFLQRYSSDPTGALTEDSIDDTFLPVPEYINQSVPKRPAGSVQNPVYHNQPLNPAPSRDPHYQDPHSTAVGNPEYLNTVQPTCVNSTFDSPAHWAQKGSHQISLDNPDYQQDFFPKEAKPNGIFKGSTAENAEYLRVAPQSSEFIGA
Classify: criterion met when IC50 is strictly less than 50 nM; criterion not met when IC50 is not.

Examples with answers:
Cc1nn(C)c2c1/C=C/c1n[nH]c3ccc(cc13)-c1cnn(C)c1CN(C)CCO2 [Example 55]    criterion met
CC(C)Oc1nn(CCO)c2c1/C=C/c1n[nH]c3ccc(cc13)-c1cnn(C)c1O[C@@H](C)C(=O)N(C)C2 [Example 220]    criterion not met
CCc1nn(C)c2c1/C=C/c1n[nH]c3ccc(cc13)-c1cnn(C)c1OCC[C@H](C)O2 [Ex. 14]    criterion not met

In: Criterion: IC50 strictly below 50 nM. Is it met by C[C@H]1CN(C)Cc2onc(C3CC3)c2/C=C/c2n[nH]c3ccc(cc23)-c2cnn(C)c2O1 [Example 173] ?
Out: criterion not met

In: What about this compound? CCOc1ccc2c(n1)/C=C/c1n[nH]c3ccc(cc13)-c1cnn(C)c1O[C@@H](C)CN(C)C2 [Ex. 267]
Out: criterion not met

In: What about this compound? COCc1nn(C)c2c1/C=C/c1n[nH]c3ccc(cc13)-c1cnn(C)c1OCCCO2 [Ex. 11]
Out: criterion not met

In: What about this compound? CCOc1nn(CC(C)(C)O)c2c1/C=C/c1n[nH]c3ccc(cc13)-c1cnn(C)c1O[C@@H](C)CN(CC)C2 [Example 222]
Out: criterion met

In: What about this compound? Cc1c2c(nn1C)OCCOCc1c(cnn1C)-c1ccc3[nH]nc(c3c1)/C=C/2 [Ex. 7]
Out: criterion not met

In: What about this compound? Cc1nn(C)c2c1/C=C/c1n[nH]c3ccc(cc13)-c1cnn(C)c1CN(C)C[C@@H](C)O2 (single isomer, unassigned) [Example 96]
Out: criterion not met

In: What about this compound? Cc1c2c(nn1C[C@H](C)O)CN(C)C[C@H](C)Oc1c(cnn1C)-c1ccc3[nH]nc(c3c1)/C=C/2 [Example 124]
Out: criterion met

In: What about this compound? CCOc1nn(CCO)c2c1/C=C/c1n[nH]c3cc(F)c(cc13)-c1cnn(C)c1O[C@@H]1CCCN(C2)C1 [Example 191]
Out: criterion met

In: What about this compound? CCN1Cc2c(c(OC(C)C)nn2CCO)/C=C/c2n[nH]c3cc(F)c(cc23)-c2cnn(C)c2O[C@@H](C)C1 [Example 216]
Out: criterion met

In: What about this compound? Cc1nn(C)c2c1/C=C/c1n[nH]c3ccc(cc13)-c1cnn(C)c1O[C@@H](C)CCO2 [Ex. 35]
Out: criterion not met

In: What about this compound? CC(C)Oc1nn(CCO)c2c1/C=C/c1n[nH]c3ccc(cc13)-c1cnn(C)c1O[C@H](C)CN(C1CC1)C2 [Example 212]
Out: criterion not met

In: What about this compound? C[C@H]1CN(C)Cc2cnn(C)c2/C=C/c2n[nH]c3ccc(cc23)-c2cnn(C)c2O1 [Example 113]
Out: criterion not met
